Taken from PubChem BioAssay.

- test_protocol: Plasmodium falciparum growth inhibition, primary screen, strain 3D7, DAPI fluorescence, 100 nL (AID 1184);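 further: parasites grown inside human red blood cells in medium with human serum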
- measurement_parameters: P. falciparum 3D7 growth, 3 d, higher = more signal
recorded_metric: z-score
Please give the numeric answer without any surrounding text.

// CCOC(=O)[C@H](CC(C)C)NC(=O)CCC1CC(OC(=O)NCc2cccc3ccccc23)CC2(CCCC(COC(=O)NCC3CCCCC3)O2)O1 (stereo not given in full) : z-score value = -2.01

// "CO[C@@H]1COC(=O)CC=C[C@@H](C)[C@H](OC)COC(=O)[C@@H](C)COC(=O)CC=C[C@H]1C" : z-score value = 0.301

// "C=CC[C@@H]1C=C[C@H](ON=C(C)CCN2CCc3nc(-c4ccccc4)c(-c4ccccc4)cc3C2)[C@@H](CO)O1" : z-score value = -0.0674
